# tested-system: T1, Recombinant cynomolgus monkey sgM-CSF (cynomolgus (Macaca fascicularis), UniProt P09603 33-255 (human entry), limits assumed); also: test concentration or dose not given here
# T1 construct: used also where only 'cynomolgus M-CSF' is printed (ELISA result, SET); also called cynomolgus sgM-CSF; cyno sgM-CSF
# T1 chain: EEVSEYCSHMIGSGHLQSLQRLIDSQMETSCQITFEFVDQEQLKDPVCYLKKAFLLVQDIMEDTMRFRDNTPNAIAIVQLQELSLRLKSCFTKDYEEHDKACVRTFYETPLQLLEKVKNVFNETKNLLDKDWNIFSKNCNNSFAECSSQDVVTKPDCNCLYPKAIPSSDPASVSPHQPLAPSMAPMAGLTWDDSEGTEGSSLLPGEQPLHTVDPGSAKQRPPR
# procedure-summary: ELISA
So I've got a bunch of binders here, and I need their ELISA fluorescence units values.

// query ELISA fluorescence units value for entry Celine (format not stated) (antibody, V domains shown) VH: QVQLQQSGPGLVKPSQTLSLTCAISGDSVSTSSAAWNWIRQSPSRGLEWLGRTYYRSKWKHEYAVSVKSRITINPDTSKNQFSLQLNSVTPEDTAVYYCARDRYYYSAFDYWGQGTLVTVSS VL: QSALTQPASVSGSPGQSITISCTGTSSDVGGYNSVSWYQQHPGKAPKLIIYAVSNRPSGVSNRFSGSKSGNTASLTISGLQAEDEADYYCASYDERFTRVFGGGTKLTVLG > 35000 units

Field entry: Madeleine (format not stated) (antibody, V domains shown) VH: QVQLQQSGPGLVKPSQTLSLTCAISGDSVSSNSAAWNWIRQSPSRGLEWLGRTYYRSKWKKEYAQSVKSRITINPDTSKNQFSLQLNSVTPEDTAVYYCARDRYYYSAFDYWGQGTLVTVSS VL: QSALTQPASVSGSPGQSITISCTGTSSDVGGYNSVSWYQQHPGKAPKLMIYAVSNRPSGVSNRFSGSKSGNTASLTISGLQAEDEADYYCASYDERFTRVFGGGTKLTVLG > 35000 units

Field entry: Romaine (format not stated) (antibody, V domains shown) VH: EVQLVESGGGLVKPGGSLRLSCAASGFTFSIYAMSWVRQAPGKGLEWVGRIKSNADGGTTEYAAPVKGRFTISRDDSKNTLYLQMNSLKTEDTAVYYCARMRYYSDLYFDPWGQGTLVTVSS VL: DIELTQPPSVSVSPGQTASITCSGDAIGSKYVHWYQQKPGQAPVLVISKDNKRPSGIPERFSGSNSGNTATLTISGTQAEDEADYYCQTATVSSYWWVFGGGTKLTVLG > 35000 units
